Target: Hexose transporter 1 (Plasmodium falciparum) (UniProt O97467)
Test: ST_JUDE_LEISH: Cytotoxicity at 2uM final concentration against transgenic Leishmania Mexicana promastigotes LmPfHT that are glucose transport deficient and complemented with the Plasmodium falciparum hexose transporter. Activity is measured by DNA content using SYBR green in vitro
Format: functional
Reported inhibition by item:
Just the number please, in %, no unit attached.

Record excerpt, results attached:
> print(dat)
                                   compound     measure  recorded.number
1  CCc1ccc(NC(=O)c2cccc(CN3CCCN(Cc4cccc(O)c4)CC3)c2)cc1  inhibition             3.08
2  COC(=O)c1cccc(CNCc2ccc(-c3cccc(-c4nc5ccccc5[nH]4)c3)cc2)c1  inhibition            -1.88
3  Cc1[nH]c(C)c(-c2ccc(-c3cccc(OC(F)(F)F)c3)nc2)c(=O)c1Cl  inhibition             0.86
4        COc1ccccc1NC(=S)N/N=C/c1ccc(O)cc1O  inhibition             6.07
5  CC(O)C1CCCCN1C(=O)c1ccc(-c2ccc(-c3nc4cc(F)ccc4[nH]3)cc2)cc1 (centres undefined)  inhibition             3.23

Answer with the recorded inhibition of `Cc1nnsc1C(=O)Nc1ccc(-c2cccc(-c3nc4cccc(C)c4[nH]3)c2)cc1` only.
2.94

Answer with the recorded inhibition of CCC(C)OC(=O)C1=C(C)NC2=C(C(=O)CC(c3ccc(OC)c(OC)c3)C2)C1c1ccc(O)cc1 (centres undefined) only.
1.77

Answer with the recorded inhibition of `Cn1ncc2c3c(CCN4CCC(NCc5cc6c(cn5)OCC6)CC4)c(Cl)cnc3ccc21` only.
0.99

Answer with the recorded inhibition of `CCNc1cc(C(=O)N[C@@H](Cc2ccccc2)[C@H](O)CN[C@@H]2CCc3ccccc32)cc(N2CCCC2=O)c1` only.
2.63

###

Target: Solute carrier family 2, facilitated glucose transporter member 1 (Homo sapiens) (UniProt P11166)
Sequence (P11166 whole entry): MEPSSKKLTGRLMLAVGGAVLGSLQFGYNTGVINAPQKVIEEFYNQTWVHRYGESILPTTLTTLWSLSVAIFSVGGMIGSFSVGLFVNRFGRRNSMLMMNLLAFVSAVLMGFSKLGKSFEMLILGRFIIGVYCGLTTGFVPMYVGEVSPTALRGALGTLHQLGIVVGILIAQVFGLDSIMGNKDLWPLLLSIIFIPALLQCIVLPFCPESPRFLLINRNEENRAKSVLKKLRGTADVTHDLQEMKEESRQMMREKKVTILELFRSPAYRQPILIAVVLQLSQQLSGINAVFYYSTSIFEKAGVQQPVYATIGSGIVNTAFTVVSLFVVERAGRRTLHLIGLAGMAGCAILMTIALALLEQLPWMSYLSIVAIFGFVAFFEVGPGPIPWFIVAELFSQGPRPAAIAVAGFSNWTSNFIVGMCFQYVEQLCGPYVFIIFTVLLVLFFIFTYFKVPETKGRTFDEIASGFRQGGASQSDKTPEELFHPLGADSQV
Assay: ST_JUDE_LEISH: Cytotoxicity at 2uM final concentration against transgenic Leishmania Mexicana promastigotes LmGLUT1 that are glucose transport deficient and complemented with the human glucose transporter GLUT1. Activity is measured by DNA content using SYBR green in vitro
Format: functional
Reported inhibition by item:
Just the number please, in %, no unit attached.

> print(dat)
                              smiles.record     measure  recorded.number
1  CCCN(CC1CC1)c1ncc(-c2cccc(CNCc3ccccc3O)c2)cn1  inhibition             -1.8
2  CC(C)Oc1cc2c(cc1NS(=O)(=O)c1ccc(-c3cccs3)cc1)CCN(C)CC2  inhibition             5.11

Answer with the recorded inhibition of `CN(c1ccccc1)S(=O)(=O)c1cccc(NC(=O)c2ccc(-n3ccnc3)c([N+](=O)[O-])c2)c1` only.
2.91

Answer with the recorded inhibition of `Oc1ccc2[nH]cc(C3CCN(CCCNCc4ccc(-c5ccccc5)cc4)CC3)c2c1` only.
5.26

Answer with the recorded inhibition of `CC[C@@]1(O)C(=O)OCc2c1cc1n(c2=O)Cc2c-1nc1cc3c(cc1c2CN1CCN(C)CC1)OCCO3` only.
7.46

###

Molecular target: Hexose transporter 1 (Plasmodium falciparum)
Experiment: ST_JUDE_LEISH: Cytotoxicity at 2uM final concentration against transgenic Leishmania Mexicana promastigotes LmPfHT that are glucose transport deficient and complemented with the Plasmodium falciparum hexose transporter. Activity is measured by DNA content using SYBR green in vitro
Type: functional
MEASURE: inhibition (%)
Just the number please, in %, no unit attached.

Record excerpt, results attached:
> print(dat)
                                   compound     measure  recorded.number
1  CC(C)Sc1nc2c(c(=O)n1Cc1ccco1)C1(CCCC1)Cc1ccccc1-2  inhibition             4.28
2  CC1(C)CCC(=Cc2ccc(Cl)cc2)CC1(O)Cn1ccnc1 (centres undefined)  inhibition             6.85

Return reported inhibition for target or system Hexose transporter 1 (Plasmodium falciparum), item `OCC1CCN(Cc2ccc(-c3ccc(-c4nc5cc(C(F)(F)F)ccc5[nH]4)s3)cc2)CC1` .
0.23

Return reported inhibition for target or system Hexose transporter 1 (Plasmodium falciparum), item `Cc1ccc(C(=O)Nc2ccc(F)c(F)c2F)cc1S(=O)(=O)N1CCCCC1` .
3.47

Return reported inhibition for target or system Hexose transporter 1 (Plasmodium falciparum), item `COc1ccc(-n2nc(C)cc2C(=O)NCc2ccc(-c3c(C)noc3C)cc2)cc1` .
2.4

###

Target: Solute carrier family 2, facilitated glucose transporter member 1 (Homo sapiens)
Assay: ST_JUDE_LEISH: Cytotoxicity at 2uM final concentration against transgenic Leishmania Mexicana promastigotes LmGLUT1 that are glucose transport deficient and complemented with the human glucose transporter GLUT1. Activity is measured by DNA content using SYBR green in vitro
Type: functional
Reported inhibition by item:
Just the number please, in %, no unit attached.

> print(dat)
                                   molecule  recorded.number
1  Cc1cc2c(cc1C(F)(F)F)N(C(=O)Nc1cc(C(=O)NCCN(C)C)cc(C(F)(F)F)c1)CC2              4.3

Answer with the recorded inhibition of `CC(C)N(CCOc1ccc2c(c1)N(C(=O)Nc1cc(Br)cc(C(F)(F)F)c1)CC2)C(C)C` only.
3.92

Answer with the recorded inhibition of Cc1ccccc1C1CCN(C2CCC(NC(=O)/C=C/c3c(F)ccc(F)c3F)CC2)CC1 (configuration not stated) only.
2.52

Answer with the recorded inhibition of `CCCc1cc(Cc2cnc(N)nc2N)cc(CCC)c1O` only.
2.06

Answer with the recorded inhibition of `CC(=O)Nc1ncc(C(=O)Nc2cccc(-c3cccc(-c4nc5cc(C(F)(F)F)ccc5[nH]4)c3)c2)s1` only.
-1.12

###

Target: Solute carrier family 2, facilitated glucose transporter member 1 (Homo sapiens)
Assay: ST_JUDE_LEISH: Cytotoxicity at 2uM final concentration against transgenic Leishmania Mexicana promastigotes LmGLUT1 that are glucose transport deficient and complemented with the human glucose transporter GLUT1. Activity is measured by DNA content using SYBR green in vitro
Assay type: functional
Reported inhibition by item:
Just the number please, in %, no unit attached.

Answer with the recorded inhibition of `CCCCCCn1c(Sc2ccc(C#N)c([N+](=O)[O-])c2)nnc1-c1ccc(Cl)cc1` only.
5.74

Answer with the recorded inhibition of `CN1CCN(c2ccnc3ccc(NC(=O)Nc4ccc(Cl)cc4)cc23)CC1` only.
-1.11

Answer with the recorded inhibition of `NC(=O)c1ccc(NCC(=O)Nc2cccc(-c3cccc(-c4nc5cc(C(F)(F)F)ccc5[nH]4)c3)c2)cc1` only.
3.23

Answer with the recorded inhibition of `Cc1nc(C)c(-c2ccc(Oc3ccc(Cl)c(Cl)c3)cc2)c(O)c1Br` only.
0.19

Answer with the recorded inhibition of `COc1c(C2CCN(CCCCNC(=O)c3ccc(-c4ccc(Cl)cc4)c(OCC(N)=O)c3)CC2)ccc2c1CCCC2` only.
4.52

Answer with the recorded inhibition of O=C(C=Cc1ccc(Cl)c(Cl)c1)NCCCCCN1CCCC(CCCNS(=O)(=O)c2cccc(C(F)(F)F)c2)C1 (centres undefined) only.
0.93

###

Target: Solute carrier family 2, facilitated glucose transporter member 1 (Homo sapiens) (UniProt P11166)
Test: ST_JUDE_LEISH: Cytotoxicity at 2uM final concentration against transgenic Leishmania Mexicana promastigotes LmGLUT1 that are glucose transport deficient and complemented with the human glucose transporter GLUT1. Activity is measured by DNA content using SYBR green in vitro
Assay type: functional
MEASURE: inhibition (%)
Just the number please, in %, no unit attached.

> print(dat)
                                    compound     measure  recorded.number
 1  O=C(NCc1cccs1)[C@H](Cc1ccccc1)Nc1ccnc(NCC2CCCCC2)n1  inhibition             11.9
 2   Cc1c(Cc2ccc(F)cc2)c(Cl)nc2nc(N)nc(N)c12  inhibition             0.75
 3  CN(C)CCCOc1cccc(CCNCc2cccc(Oc3ccc(Cl)cc3)c2)c1  inhibition             2.64
 4  CCCCCCCN(Cc1ccc(OC(C)(C)C(=O)OCC)cc1)C(=O)Cc1ccc(F)cc1F  inhibition             2.17
 5  Cc1nc(-c2cccc(Nc3nccc(NCC(O)c4ccc(C(F)(F)F)cc4)n3)c2)cs1 (stereo not given)  inhibition             1.28
 6  COc1ccc(NC(=O)[C@H](CC(C)C)Nc2cc(C)nc(NCCOc3ccccc3)n2)cc1  inhibition             1.07
 7  CN1CCCN(Cc2cccc(-c3cccc(NC(=O)c4cccc(Cl)c4)c3)c2)CC1  inhibition             13.4
 8  Cc1noc(C)c1-c1ccc2c(Nc3ccc(Cl)cc3)c(C(N)=O)cnc2c1  inhibition             24.3
 9  CN(C)c1ccc(-c2csc(C(=O)NC3CCCCN(Cc4ccc(C(C)(C)C)cc4)C3)c2)cc1 (stereo not given)  inhibition            -1.22
10  OC(CNCc1ccccc1Oc1ccccc1)c1cccc(C(F)(F)F)c1 (stereo not given)  inhibition             3.95

Now examine the next entry.
Answer with the recorded inhibition of `COc1ccc2nccc([C@@H](O)CN3CCC(NCc4ccc5c(c4)oc(=S)n5C)CC3)c2c1` only.
2.25
